assay: gradient 5% acetonitrile 3 min, to 50% in 2 min, to 85% in 15 min, held 3 min, 100 µL/min; conditions: column: Zorbax Extend-C18 2.1 x 50 mm; eluents: water / acetonitrile, 0.1% formic acid
readoutName: RP-LC retention time (s)
# output: bare number, implied unit s

Below, 3 compounds whose answers are already recorded.
>>> df
                                   compound  reportedmeasurement
0  Cc1cc(C)c(S(=O)(=O)N(CC(=O)N2CCNCC2)CC2CCCO2)cc1C (centres undefined)                  704
1  CCOc1cc(C(=O)Nc2c(-c3ccc(OC)cc3)nc3cc(C)ccn23)cc(OCC)c1OCC                  803
2  CNC(=O)NCCC1CCN(S(=O)(=O)c2ccc(C)cc2)CC1                  708

Consider the compound Cc1cc(N2CCN(C)CC2)nc2ccc(NC(=O)NCc3ccco3)cc12 and give its measured RP-LC retention time.
564

Consider the compound CC(C)(C)NC(=O)N1CCC(CNS(=O)(=O)c2ccc(Br)s2)CC1 and give its measured RP-LC retention time.
818

Consider the compound COc1ccc(OC)c(-c2cc(C(=O)N3CCC(C(=O)NCC(F)(F)F)CC3)[nH]n2)c1 and give its measured RP-LC retention time.
705

Consider the compound COc1ccc(CCS(=O)(=O)NCC2CCN(C(=O)c3cccn(C)c3=O)CC2)cc1 and give its measured RP-LC retention time.
638

Consider the compound O=P(OC1=CCCCC1)(c1ccccc1)c1ccccc1 and give its measured RP-LC retention time.
1030

Consider the compound COc1ccc(C(=O)Nc2ccc(-c3cn4ccc(C)nc4n3)cc2)cc1 and give its measured RP-LC retention time.
632

Consider the compound CCc1ccc(NC(=O)C2CCCN2S(=O)(=O)c2cc3c(cc2C)NC(=O)C(C)O3)cc1 (centres undefined) and give its measured RP-LC retention time.
842

Consider the compound O=C(CCc1ccccc1)Nc1ccc2c(c1)CCCN2C(=O)c1ccco1 and give its measured RP-LC retention time.
861

Consider the compound Cn1nc(-c2nnc(-c3ccccc3F)o2)c2c1CCN(S(=O)(=O)c1ccc(C#N)cc1)C2 and give its measured RP-LC retention time.
894

Consider the compound O=C([C@@H]1C[C@H](Oc2cccnc2)CN1C(=O)c1n[nH]c(=O)c2ccccc12)N1CCCC1 and give its measured RP-LC retention time.
564

Consider the compound Cc1ccc(S(=O)(=O)N(C)C)cc1-c1nnc(-c2ccc(Cl)cc2)o1 and give its measured RP-LC retention time.
1080

Consider the compound CC(=O)c1ccc(NC(=O)Cn2c(-c3ccc(F)cc3)nc(C)cc2=O)cc1 and give its measured RP-LC retention time.
953

Consider the compound Cc1cc(C)c(CNC(=O)c2cn3ccccc3n2)c(C)c1 and give its measured RP-LC retention time.
783

Consider the compound CCn1c(=O)c(NCCc2ccc(OC)c(OC)c2)nc2ccncc21 and give its measured RP-LC retention time.
618

Consider the compound COc1ccc(NC(=O)Cn2ccnc2-c2ccnc(N3CCOCC3)c2)cc1Cl and give its measured RP-LC retention time.
631

Consider the compound CCn1cnc(S(=O)(=O)N2CCC(C(=O)NCCc3nc4ccc(C)cc4[nH]3)CC2)c1 and give its measured RP-LC retention time.
589

Consider the compound CCOc1ccc(-c2cc(=O)n(CC(=O)NCCn3ncccc3=O)cn2)cc1 and give its measured RP-LC retention time.
614

Consider the compound CN(C)c1cc(C(=O)NC2CC2)c2cc(F)ccc2n1 and give its measured RP-LC retention time.
722

Consider the compound CC(=O)N1CCc2ccc(C(=O)N3CCOCC3)cc21 and give its measured RP-LC retention time.
602

Consider the compound COc1ccc(-c2nnc(-c3ccc(OC)c(S(=O)(=O)N4CCCC4)c3)o2)cc1OC and give its measured RP-LC retention time.
844

Consider the compound Cc1ccc(NC(=O)C2CCN(S(=O)(=O)c3cc(C(=O)N4CCCC4)n(C)c3)CC2)cc1Cl and give its measured RP-LC retention time.
875

Consider the compound CC(C)CNC(=O)CCc1nc2ccccc2n(CC(=O)Nc2ccc(C(C)C)cc2)c1=O and give its measured RP-LC retention time.
949

Consider the compound O=S(=O)(Cc1cccc(F)c1)NCCc1ccsc1 and give its measured RP-LC retention time.
852
